Attribute: pKi
target_under_test: human factor Xa (Homo sapiens, UniProt P00742)
Construct: 25 μl human factor Xa (Enzyme Research Laboratories, Inc; South Bend, Ind.); purchased Enzyme Research Laboratories, Inc; South Bend, Ind
Sequence (P00742 235-488 limits assumed): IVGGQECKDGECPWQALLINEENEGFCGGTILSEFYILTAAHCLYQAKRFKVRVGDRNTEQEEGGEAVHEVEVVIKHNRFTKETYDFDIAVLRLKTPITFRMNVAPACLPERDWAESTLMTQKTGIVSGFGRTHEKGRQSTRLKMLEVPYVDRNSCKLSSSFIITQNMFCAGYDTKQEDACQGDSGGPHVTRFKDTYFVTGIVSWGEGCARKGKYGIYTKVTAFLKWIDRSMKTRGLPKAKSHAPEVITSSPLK
Sequence (P00742 41-179 partner limits assumed): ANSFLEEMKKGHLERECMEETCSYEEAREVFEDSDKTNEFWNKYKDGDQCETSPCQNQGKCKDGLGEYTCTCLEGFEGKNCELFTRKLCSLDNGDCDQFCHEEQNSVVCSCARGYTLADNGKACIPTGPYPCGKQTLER
experiment: Factor Xa chromogenic assay (substrate S-2765);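 also: purified enzyme, compound preincubated with the enzyme for 10 min before substrate addition starts the reaction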
Type: biochemical
conditions_used: read-out: Ki(FXa)
In simple prose, pKi is minus the logarithm base ten of a concentration in moles per litre.

Worked examples, 8 molecules total:
{"smiles_text": "Cc1cc(N2CCC(CNC(=O)c3ccc(Cl)c(OCCc4ccc(Cl)nc4)c3)CC2)ccn1", "readout_number": 6.56}
{"smiles_text": "COc1cc(C(=O)NCC2CCN(c3ccnc(C)c3)CC2)cc(OCCc2ccc(Cl)cc2)c1Cl", "readout_number": 7.14}
{"smiles_text": "O=C(NCC1CCN(c2ccncc2)CC1)c1cc(O)c(Br)c(OCCc2ccc(Cl)cc2Cl)c1", "readout_number": 7.59}
{"smiles_text": "O=C(NCC1CCN(c2ccncc2)CC1)c1cccc(OCCc2ccc(Cl)cc2Cl)n1", "readout_number": 6.52}
{"smiles_text": "COc1ccc(C(=O)NCC2CCN(c3ccncc3)CC2)cc1NS(=O)(=O)c1cc2ccc(Cl)cc2s1", "readout_number": 5.46}
{"smiles_text": "O=C(NCC1CCN(c2ccncc2)CC1)c1ccc(F)c(OCCc2ccc(F)cc2Cl)c1", "readout_number": 7.23}
{"smiles_text": "O=C(NCC1CCN(c2ccncc2)CC1)c1cccc(S(=O)(=O)Nc2ccc(Cl)cn2)c1", "readout_number": 5.43}
{"smiles_text": "Cc1ccc(C(=O)NCC2CCN(c3ccncc3)CC2)cc1OCc1ccc(Cl)cc1", "readout_number": 5.42}

As a next step, examine the molecule that follows.
Problem: For the molecule shown here, `CCN(CC)C(=O)c1cc(OCCc2ccc(Cl)cc2Cl)cc(C(=O)NCC2CCN(c3ccncc3)CC2)c1` , give the reported pKi.
Solution: 6.72
